Biological target: human ether-à-go-go-related gene (hERG) potassium channel (human, UniProt Q12809)
Sequence (Q12809 whole entry, looked up): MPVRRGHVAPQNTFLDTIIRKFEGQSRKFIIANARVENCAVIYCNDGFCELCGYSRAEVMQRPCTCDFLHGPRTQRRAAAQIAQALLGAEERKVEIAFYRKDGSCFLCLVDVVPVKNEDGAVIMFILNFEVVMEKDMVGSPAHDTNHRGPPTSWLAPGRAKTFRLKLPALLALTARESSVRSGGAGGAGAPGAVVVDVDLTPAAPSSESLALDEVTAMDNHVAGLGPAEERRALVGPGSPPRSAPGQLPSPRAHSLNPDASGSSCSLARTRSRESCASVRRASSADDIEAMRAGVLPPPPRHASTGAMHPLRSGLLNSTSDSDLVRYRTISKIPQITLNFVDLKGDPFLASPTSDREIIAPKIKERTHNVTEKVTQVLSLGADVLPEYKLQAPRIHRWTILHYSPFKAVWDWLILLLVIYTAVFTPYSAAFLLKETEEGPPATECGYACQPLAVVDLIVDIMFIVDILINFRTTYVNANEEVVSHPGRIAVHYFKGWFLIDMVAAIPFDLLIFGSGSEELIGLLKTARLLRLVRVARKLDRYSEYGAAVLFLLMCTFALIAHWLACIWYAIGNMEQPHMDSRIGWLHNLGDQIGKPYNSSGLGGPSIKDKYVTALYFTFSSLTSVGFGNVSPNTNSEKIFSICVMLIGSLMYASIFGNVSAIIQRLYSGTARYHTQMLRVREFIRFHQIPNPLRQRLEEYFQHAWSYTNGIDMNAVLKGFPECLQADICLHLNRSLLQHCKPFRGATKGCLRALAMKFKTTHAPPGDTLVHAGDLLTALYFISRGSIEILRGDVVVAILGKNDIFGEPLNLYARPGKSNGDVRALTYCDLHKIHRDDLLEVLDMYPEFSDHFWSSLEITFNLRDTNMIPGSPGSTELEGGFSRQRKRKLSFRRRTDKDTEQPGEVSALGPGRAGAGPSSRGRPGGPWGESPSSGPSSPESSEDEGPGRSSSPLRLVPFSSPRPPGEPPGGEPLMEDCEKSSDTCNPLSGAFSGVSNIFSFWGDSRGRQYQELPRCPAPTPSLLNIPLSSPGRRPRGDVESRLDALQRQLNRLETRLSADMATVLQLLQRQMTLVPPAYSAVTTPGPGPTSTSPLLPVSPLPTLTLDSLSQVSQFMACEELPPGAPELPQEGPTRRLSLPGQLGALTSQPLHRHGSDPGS
Assay: primary screen, population patch clamp on CHO cells stably expressing hERG; higher = less effect of the substance
Among all 310,000 compounds or so, about 2,200 (0.71%) showed an effect of 50% or more. The effect is printed as a negative number. The full list was thinned out, with strong results kept by preference.
Items are presented alongside their recorded hERG current change (%, negative = inhibition) at 1uM.
Parameter: hERG current change (%, negative = inhibition) at 1uM (%)

>>> print(df.to_string())
                                    molecule  measurement_units  reported_value
 0                 Cc1ccc(CNC(=O)C2CCCC2)cc1                  %            10.4
 1  COc1ccccc1N1CCN(Cc2ccc(Br)cc2)CC1.O=C(O)C(=O)O                  %           -6.63
 2  CCc1ccc(CN2CCN(Cc3ccc(SC)cc3)CC2)cc1.O=C(O)C(=O)O                  %           -27.1
 3  Cl.O=[N+]([O-])c1ccc(CN2CCN(c3ccc4ccccc4n3)CC2)cc1                  %           -1.76
 4  CSc1ccc(CN2CCC(C(=O)NCc3ccc(C)cc3)CC2)cc1.O=C(O)C(=O)O                  %           -76.1
 5  CCC(=O)Nc1ccc(S(=O)(=O)Nc2cccc(C)c2)cc1OC                  %            6.57
 6  COc1cccc(N2CCN(Cc3nc(N)nc(Nc4ccccc4)n3)CC2)c1                  %           -31.9
 7                 CCc1ccccc1NNC(=O)c1snnc1C                  %             1.7
 8           COc1cccc(NC(=O)NCCCCc2ccccc2)c1                  %          -0.169
 9  Nc1nc(CN2CCC(Cc3ccccc3)CC2)nc(Nc2ccccc2)n1                  %           -87.4
10  CCN(CC)c1ccc(CN2CCC(C(=O)NCc3ccc(C)cc3)CC2)cc1.O=C(O)C(=O)O                  %           -13.2
11  CCS(=O)(=O)N1CCN(Cc2ccc([N+](=O)[O-])cc2)CC1.O=C(O)C(=O)O                  %            9.38
12  O=C(CC(C(=O)O)c1c[nH]c2ccccc12)c1ccccc1 (centres unmarked)                  %            9.56
13  O=C(O)C(=O)O.O=C(c1ccc([N+](=O)[O-])cc1)N1CCN(Cc2ccccc2[N+](=O)[O-])CC1                  %           -70.1
14    CN1/C(=C\C(=O)c2ccco2)C(C)(C)c2ccccc21                  %            4.59
15  CSc1ccc(CN2CCN(Cc3ccc([N+](=O)[O-])cc3)CC2)cc1.O=C(O)C(=O)O                  %           -70.5
16  CC1CCCCC1NC(=O)Cn1cccc1C(=O)c1ccccc1 (centres unmarked)                  %              14
17   Cc1ccnc(NC(=O)Cn2cc([N+](=O)[O-])cn2)c1                  %            10.4
18  COc1ccccc1N1CCN(Cc2ccc(SC)cc2)CC1.O=C(O)C(=O)O                  %           -53.8
19  Nc1nc(CN2CCN(C(c3ccccc3)c3ccccc3)CC2)nc(Nc2ccccc2)n1                  %            10.2
